System: lactate dehydrogenase (LDH)
Experiment: ELISA analysis of phage on LDH (irrelevant, non-specific target)
Assay type: binding
Settings: DGI-9 binders; LDH control irrelevant protein; ratio over background
attribute.measured: LDH

input: Name the recorded LDH of the item WDWSRFGAQLRGAILGRATG [DGI9-20M-4-A627] in your answer.
output: 0.9

input: Name the recorded LDH of the item MAGFRGSGLSGYSEARLPRV [DGI9-20M-4-E3] in your answer.
output: 1.0

input: Name the recorded LDH of the item SRLALSSQHGLSLVAGRRRG [DGI9-20M-4-A12] in your answer.
output: 0.9

input: Name the recorded LDH of the item FLLQDFIMDAGSFVKPIGVG [DGI9-20M-4-A414] in your answer.
output: 1.1
